pKi by entry:
Target: CRF-R2β
Assay: radioreceptor competition vs 125I-[Tyr0,Glu1,Nle17]-sauvagine, CHO cell membranes
No end group written: not given here.
Just so you know, pKi here is -log10 of the concentration in molar units; reply with that number alone.

IVLSLDVPIGLLQILLEQARARAAREQATTNARILARVGHC-NH2 [human urocortin-related peptide]
9.30
DDPPLSIDLTFHLLRTLLELARTQSQRERAEQNRIIFDSV (peptide, UniProt P55090 81-120, looked up) [Urocortin (rat)]
9.21
VILSLDVPIGLLRILLEQARYKAARNQAATNAQILAHV-NH2 [Urocortin II (mouse)]
9.18

For the next question, use this binder.
Find the recorded pKi belonging to QGPPISIDLSLELLRKMIEIEKQEKEKQQAANNRLLLDTI (peptide, UniProt P01144 1-40, looked up, ends and bridges not checked) [Sauvagine (frog)] and report it.
8.77

From: patent US20020127221A1
